Documented viability at 24 h, 50 µM across a set of compounds
- TEST_DETAILS: Cytotoxicity against mouse BV2 cells assessed as cell viability at 50 uM after 24 hrs by MTT assay
- Type: cell-based, BV-2
- APPLIED_CONDITIONS: read-out: Activity
OBSERVED_PROPERTY: viability at 24 h, 50 µM

> print(dat)
                               given.smiles  result
1  COc1ccc(CCC(=O)/C=C/c2ccc(OC(C)=O)c(OC(C)=O)c2)cc1OC   > 90%
2        O=C(/C=C/c1ccc(O)c(O)c1)CCc1ccccc1   > 90%
3  CC(=O)Oc1ccc(/C=C/C(=O)CCc2ccccc2)cc1OC(C)=O   > 90%
